study target: Transcriptional regulator ERG (Homo sapiens) (UniProt P11308)
Sequence (P11308 whole entry, looked up): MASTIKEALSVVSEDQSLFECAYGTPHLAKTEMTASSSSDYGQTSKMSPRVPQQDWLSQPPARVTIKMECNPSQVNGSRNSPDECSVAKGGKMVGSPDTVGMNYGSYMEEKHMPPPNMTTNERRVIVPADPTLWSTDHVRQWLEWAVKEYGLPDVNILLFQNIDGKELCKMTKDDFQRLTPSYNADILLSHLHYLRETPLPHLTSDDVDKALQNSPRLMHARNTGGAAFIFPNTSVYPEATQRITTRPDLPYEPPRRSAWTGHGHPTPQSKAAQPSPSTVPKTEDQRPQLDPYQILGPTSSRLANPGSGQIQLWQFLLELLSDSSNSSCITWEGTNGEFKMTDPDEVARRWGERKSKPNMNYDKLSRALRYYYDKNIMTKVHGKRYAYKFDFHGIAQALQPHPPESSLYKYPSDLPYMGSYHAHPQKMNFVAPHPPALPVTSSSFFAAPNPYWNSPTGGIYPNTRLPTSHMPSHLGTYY
test method notes: qHTS for Small Molecule Inhibitors of the ERG Ets/DNA interaction: HTRF assay against cherry picks
assay context: His-ERG Ets domain with biotin-DNA; series mostly up to 154 µM
About 20 (2%) of roughly 1,200 compounds were called active. Inconclusive results (about 23%) are left out. Calls follow the shape of the dose curve; as a rule, active = well fitted inhibition curve with a large enough effect; inconclusive = small, poorly fitted or top-dose-only effect; inactive = no such curve, though single readings can be large or run the other way. Only a selection was taken, and actives are over-represented in it overall.
Assign a class; possible classes are true (active), false (inactive)

// known answers, use as guide
(Q) Given COc1ccccc1C(C)NC(=O)c1cc(S(=O)(=O)N2CCCCC2)ccc1C (centres undefined) , state the outcome it received in this test.
(A) false

(Q) Given CCn1nc(C)cc1C(=O)N1CCCC(N2CCN(Cc3ccc4c(c3)OCO4)CC2)C1 (centres undefined) , state the outcome it received in this test.
(A) false

(Q) Given CCOCCn1c(CN2CCCCC2)nc2c1c(=O)n(C)c(=O)n2C , state the outcome it received in this test.
(A) false

(Q) Given COc1ccc(S(=O)(=O)N2CCCC(C(F)(F)F)C2)cc1 (centres undefined) , state the outcome it received in this test.
(A) false

(Q) Given CCOc1ccccc1NC(=O)COc1ccc2ccc(=O)oc2c1 , state the outcome it received in this test.
(A) false

(Q) Given CCOc1cc(CNc2cccc3[nH]c(C)nc23)ccc1OC , state the outcome it received in this test.
(A) false

(Q) Given COC(OC)c1nc(SCC(=O)Nc2cccc(Cl)c2)ncc1C(=O)O , state the outcome it received in this test.
(A) false

(Q) Given Nc1ccc2[nH]ncc2c1 , state the outcome it received in this test.
(A) false

(Q) Given COc1cc(NC(=O)COC(=O)CNC(=O)C2CCCCC2)cc(OC)c1 , state the outcome it received in this test.
(A) false

(Q) Given COc1ccc(OC)c(NC(=O)Cn2cnc3sc(C)c(S(=O)(=O)N4CCN(c5ccccc5OC)CC4)c3c2=O)c1 , state the outcome it received in this test.
(A) false

***
(Q) Given Cn1ccc(C(=O)OCC(=O)Nc2ccccc2)n1 , state the outcome it received in this test.
(A) false

(Q) Given O=C(CCN=C1NS(=O)(=O)c2ccccc21)OCc1ccccc1 , state the outcome it received in this test.
(A) false

(Q) Given O=C(OCC(=O)c1c[nH]c2ccccc12)c1ccc([N+](=O)[O-])s1 , state the outcome it received in this test.
(A) true

(Q) Given O=C(C1CCN(CCc2ccccc2)CC1)N1CCOCC1 , state the outcome it received in this test.
(A) false

(Q) Given CC1CCN(S(=O)(=O)c2ccc(Cl)s2)CC1 , state the outcome it received in this test.
(A) false

(Q) Given Cc1[nH]c2ccc(C(=O)OCC(=O)Nc3cccc(S(N)(=O)=O)c3)cc2c1C , state the outcome it received in this test.
(A) false

(Q) Given CCc1nn2c(=O)cc(CSCC(=O)Nc3ccccc3F)nc2s1 , state the outcome it received in this test.
(A) false

(Q) Given O=c1oc2ccccc2cc1-c1cn2cc(Cc3ccc(F)cc3)sc2n1 , state the outcome it received in this test.
(A) false

(Q) Given COc1cc(CO)ccc1OCC(=O)Nc1cccc2ccccc12 , state the outcome it received in this test.
(A) false

(Q) Given CCc1cc(C(=O)NNC(=S)Nc2cccc(C)c2)cs1 , state the outcome it received in this test.
(A) false

(Q) Given CC(=O)OCC(=O)C1=CCC2C3CCC4=CC(=O)C=CC4(C)C3(F)C(OC(C)=O)CC12C (centres undefined) , state the outcome it received in this test.
(A) false

(Q) Given Cc1ccc(-c2noc(C3CCCN(C(=O)c4cccc([N+](=O)[O-])c4)C3)n2)o1 (centres undefined) , state the outcome it received in this test.
(A) false

* * *

study target: Transcriptional regulator ERG (Homo sapiens)
test method notes: qHTS for Small Molecule Inhibitors of the ERG Ets/DNA interaction: HTRF assay against cherry picks
assay context: His-ERG Ets domain with biotin-DNA; series mostly up to 154 µM
The whole screen tested about 1,200 compounds, of which about 20 (2%) were called active. Not shown: some 23% with an inconclusive outcome. Calls come from the whole dose curve; as a rule, active = well fitted inhibition curve with a large enough effect; inconclusive = small, poorly fitted or top-dose-only effect; inactive = no such curve, though single readings can be large or run the other way. The sample holds actives, similar compounds and a random draw of the others, so the mix is not that of the screen.
Assign a class; possible classes are active, inactive

(Q) Given CCOc1ccc(NS(=O)(=O)c2ccc(NC(C)=O)c(OC)c2)cc1 , state the outcome it received in this test.
(A) inactive

(Q) Given Cc1cc(C)nc(N2CCCC(C(=O)Nc3ccc(F)cc3)C2)n1 (configuration not stated) , state the outcome it received in this test.
(A) inactive

(Q) Given Cc1cccc(NC(=O)c2ccccc2NC(=O)c2ccco2)c1 , state the outcome it received in this test.
(A) inactive

(Q) Given COc1ccc(Nc2ncnc3sccc23)cc1OC , state the outcome it received in this test.
(A) inactive

(Q) Given CSc1nc(-c2ccc(Cl)cc2)nn1C(=O)c1ccccc1 , state the outcome it received in this test.
(A) inactive

(Q) Given CCCN(C(=O)c1nn(-c2ccc(C)cc2)c(=O)c2c1c1ccccc1n2C)c1ccccc1C , state the outcome it received in this test.
(A) inactive

***
(Q) Given CC(=O)c1cccc(NC(=O)C(C)OC(=O)CCc2nc3ccccc3c(=O)[nH]2)c1 (configuration not stated) , state the outcome it received in this test.
(A) inactive

(Q) Given OC(CN1CCCCC1)Cn1c2ccccc2c2cc(Br)ccc21 (configuration not stated) , state the outcome it received in this test.
(A) inactive

(Q) Given CC(=O)Nc1cccc(NC(=O)c2ccccc2OCc2c(C)noc2C)c1 , state the outcome it received in this test.
(A) inactive

(Q) Given O=C(Nc1ccc(-c2nc3ccccc3[nH]2)cc1)c1c(F)c(F)c(F)c(F)c1F , state the outcome it received in this test.
(A) inactive

(Q) Given Nc1cccc(N2C(=O)c3cccc4c(N)ccc(c34)C2=O)c1 , state the outcome it received in this test.
(A) active

(Q) Given CCc1cc(C(=O)OC)c(NC(=O)CN2CCN(C(=O)C3CCCO3)CC2)s1 (configuration not stated) , state the outcome it received in this test.
(A) inactive

* * *

study target: Transcriptional regulator ERG (Homo sapiens) (UniProt P11308)
test method notes: qHTS for Small Molecule Inhibitors of the ERG Ets/DNA interaction: HTRF assay against cherry picks
assay context: His-ERG Ets domain with biotin-DNA; series mostly up to 154 µM
Description: The Ets family of proteins is a family of ~30 conserved transcription factors defined by the presence of an ~85 amino acid domain referred to as the Ets domain, which mediates sequence-specific DNA binding to a core DNA element GGAA/T.The Ets family member ERG has been linked to several neoplasms. […] More extensive studies of the effects of over-expression of ERG in prostate cells have recently been carried out and have shown that over-expression of ERG results in increased invasion. […]
The campaign covered roughly 1,200 compounds. About 20 (2%) were called active. Another 23% or so got no clear call; they are omitted. Calls come from the whole dose curve; as a rule, active = well fitted inhibition curve with a large enough effect; inconclusive = small, poorly fitted or top-dose-only effect; inactive = no such curve, though single readings can be large or run the other way. The full list was thinned out, with actives kept by preference.
Assign a class; possible classes are T (active), F (inactive)

// known answers, use as guide
(Q) Given COc1ccccc1NS(=O)(=O)c1ccc(C)c(NC(=O)c2c(C)noc2C)c1 , state the outcome it received in this test.
(A) F

(Q) Given Cc1occc1C(=O)NCCc1ccc(Cl)cc1 , state the outcome it received in this test.
(A) F

(Q) Given Cc1ccc2c(c1)N(CC(=O)NC1CCCc3ccccc31)C(=O)CO2 (stereo not drawn) , state the outcome it received in this test.
(A) F

(Q) Given COc1ccc(CCNC(=O)Cn2cc(C(F)(F)F)cc(Cl)c2=O)cc1 , state the outcome it received in this test.
(A) F

(Q) Given CC(C)CCNC(=O)c1ccc2c(SCC(=O)O)c3c(nc2c1)CCCC3 , state the outcome it received in this test.
(A) F

***
(Q) Given Cc1noc(C)c1S(=O)(=O)N(CC(=O)NCc1ccc(F)cc1)c1ccc(C(C)C)cc1 , state the outcome it received in this test.
(A) F

(Q) Given O=C(Nc1cc(-c2nc3cc(Cl)ccc3o2)ccc1Cl)c1cccs1 , state the outcome it received in this test.
(A) F

(Q) Given Nc1c2ccccc2nc2ccccc12 , state the outcome it received in this test.
(A) T

(Q) Given CCCCn1c(N)c(N(CCOC)C(=O)c2ccc(S(=O)(=O)N3CCCCC3)cc2)c(=O)[nH]c1=O , state the outcome it received in this test.
(A) F

(Q) Given Cc1cc(C)cc(-n2ccnc2SCC(=O)Nc2ccc(C)c(Cl)c2)c1 , state the outcome it received in this test.
(A) F

(Q) Given COC(=O)c1c(C(=O)OC)c(-c2ccc(OC)cc2)n2c1CS(=O)C2 (stereo not drawn) , state the outcome it received in this test.
(A) F

* * *

study target: Transcriptional regulator ERG (Homo sapiens) (UniProt P11308)
test method notes: qHTS for Small Molecule Inhibitors of the ERG Ets/DNA interaction: HTRF assay against cherry picks
assay context: His-ERG Ets domain with biotin-DNA; series mostly up to 154 µM
Among all 1,200 compounds or so, about 20 (2%) were called active. Roughly 23% stayed inconclusive and do not appear here. Calls follow the shape of the dose curve; as a rule, active = well fitted inhibition curve with a large enough effect; inconclusive = small, poorly fitted or top-dose-only effect; inactive = no such curve, though single readings can be large or run the other way. The entries come from a sample that favours actives as a whole.
Assign a class; possible classes are active, inactive

(Q) Given Cc1cccc(-n2c(-c3ccccc3)c[nH]c2=S)c1C , state the outcome it received in this test.
(A) inactive

(Q) Given O=C(CNC(=S)N(Cc1ccccc1)Cc1cccnc1)NC1CCCCC1 , state the outcome it received in this test.
(A) inactive

(Q) Given COc1cc(SC)ccc1C(=O)NC(C)C , state the outcome it received in this test.
(A) inactive

(Q) Given CCOc1ccccc1N1CCN(C(=O)c2cc(S(=O)(=O)N(C)C)ccc2N2CCCC2)CC1 , state the outcome it received in this test.
(A) inactive

(Q) Given CCCCn1c(N)c(N(CC)C(=O)c2ccc(C#N)cc2)c(=O)[nH]c1=O , state the outcome it received in this test.
(A) inactive

(Q) Given Cc1cc(F)ccc1NC(=O)c1ccc(NS(=O)(=O)c2cc(C(C)(C)C)ccc2C)cc1 , state the outcome it received in this test.
(A) inactive

(Q) Given COc1ccc(-c2n(CC(=O)OC3CC(C)CCC3C(C)C)c3ccccc3[n+]2C)cc1 (configuration not stated) , state the outcome it received in this test.
(A) inactive

(Q) Given CN(C(=O)COC(=O)c1ccc(F)c(S(=O)(=O)N2CCOCC2)c1)C1CCS(=O)(=O)C1 (configuration not stated) , state the outcome it received in this test.
(A) inactive

(Q) Given Cc1cc(C)c(S(=O)(=O)N2CCN(C(=O)N3CCOCC3)CC2)c(C)c1 , state the outcome it received in this test.
(A) inactive

(Q) Given COCCNC(=O)Cn1c(=O)n(CCCC(=O)NCc2ccc3c(c2)OCO3)c(=O)c2sccc21 , state the outcome it received in this test.
(A) inactive

(Q) Given COC(=O)C1=C(C)NC(C)=C(C(=O)OC)C1c1ccc(-c2cccc(Cl)c2Cl)o1 , state the outcome it received in this test.
(A) inactive

(Q) Given CN(C)c1nc2n(c(=S)n1)CCS2 , state the outcome it received in this test.
(A) inactive

(Q) Given NC(=O)c1ccccc1NCC(=O)c1ccc(F)cc1 , state the outcome it received in this test.
(A) inactive

(Q) Given CCOc1cc(NC(=S)NCC(C)C)c(OCC)cc1NC(=O)c1ccco1 , state the outcome it received in this test.
(A) inactive

(Q) Given O=C(O)CC(c1cccc2ccccc12)N1Cc2ccccc2C1=O (configuration not stated) , state the outcome it received in this test.
(A) inactive

(Q) Given COc1ccc(C(=O)N[C@H](C(=O)N2CCN(c3ccccc3F)CC2)C(C)C)cc1 , state the outcome it received in this test.
(A) inactive

(Q) Given CCCCn1c(=O)[nH]c2nc3cc(N)ccc3nc2c1=O , state the outcome it received in this test.
(A) active

(Q) Given C[C@H](NC(=O)[C@@H]1Cc2ccccc2CN1C(=O)OC(C)(C)C)C(=O)NC1CCCCC1 , state the outcome it received in this test.
(A) inactive

(Q) Given CCc1cccc(C)c1NC(=O)CSc1nc(C)c(C)o1 , state the outcome it received in this test.
(A) inactive
